Data provenance is PubChem BioAssay (NCI).

- Tested on: MOLT-4 leukemia
- method_description: NCI-60 one-dose screen, 48 h
- experimental_conditions: 10 µM unless noted
Compounds without any hit were thinned out: in the full panel of roughly 83,000, 20% have a hit. Calls of active or inactive are those of the source. How the source made its calls: active means growth percent below 10; inactive means the rest.
Labels: 1 = active, 0 = inactive

[[record]]
compound = "C#Cc1cccc(Nc2ncnc3ccc(-c4cnc(Cl)c(NS(C)(=O)=O)c4)cc23)c1"
class_assignment = 1

[[record]]
compound = "CCOC(=O)CC1CSC(N/N=C/c2ccc(O)cc2)=N1 (configuration not stated)"
class_assignment = 0

[[record]]
compound = "O=C(CSc1nnc(-c2cc(-c3ccc(Cl)cc3)nc3ccccc23)n1-c1ccccc1)Nc1ccc(Cl)cc1"
class_assignment = 0

[[record]]
compound = "O=C(OCC(O)(CO)C(=O)NC12CC3CC(CC(C3)C1)C2)c1ccc(Cl)cc1 (configuration not stated)"
class_assignment = 0

[[record]]
compound = "CC1=C([Se]CC(OC(=O)[C@@H](CO)NC(=O)OC(C)(C)C)C(=O)NCCCCCC(=O)OCc2ccccc2)C(=O)c2ccccc2C1=O (some centres not stated)"
class_assignment = 1

[[record]]
compound = "C=C1C(=O)O[C@H]2[C@H]1CC/C(CNC(=O)/C=C/c1cc(OC)c(OC)c(OC)c1)=C\\CC[C@@]1(C)O[C@@H]21"
class_assignment = 1

[[record]]
compound = "COC1=C(OC)C(=O)C(CCCCCCCCCCO)=C(C)C1=O"
class_assignment = 0

[[record]]
compound = "N#C/C(=C/C=C/c1ccccc1)S(=O)c1ccccc1 (configuration not stated)"
class_assignment = 1

[[record]]
compound = "CN1C(=O)N(C)C2C1NN=c1s/c(=C\\c3ccccc3F)c(=O)n12 (configuration not stated)"
class_assignment = 0

[[record]]
compound = "Cc1cc([N+](=O)[O-])ccc1NC(=O)c1ccc2c(c1)nc(-c1ccccc1)n2C1CCCCC1"
class_assignment = 0

[[record]]
compound = "CC1(C)CCC[C@]23C(=O)O[C@](O)(C(=O)C4=C[C@@](C)(/C=C/CCCc5ccc6ccc7cccc8ccc5c6c78)CC[C@@]42O)[C@@H]13"
class_assignment = 1

[[record]]
compound = "COc1cc(C2CC(c3cccc(Nc4ccncc4)c3)=Nc3c(N)ncnc3N2)cc(OC)c1OC (configuration not stated)"
class_assignment = 0


----------
- Tested on: EKVX NSCLC
- method_description: NCI-60 one-dose screen, 48 h
- experimental_conditions: 10 µM unless noted
This is part of a sample that, as a whole, favours compounds with a hit. Of some 83,000 tested, about 20% had one in any assay. Active and inactive are the calls of the source. How the source made its calls: active means growth percent below 10; inactive means the rest.
Labels: true (1) for active, false (0) for inactive

[[record]]
molecule = "CN(C)CCCN(CCC1CCCCC1)CCC1CCCCC1"
tested_on = "EKVX NSCLC"
class_assignment = "false (0)"

[[record]]
molecule = "COc1ccc2c(c1)C(c1c[nH]c3ccccc13)(c1c[nH]c3ccccc13)CCO2"
tested_on = "EKVX NSCLC"
class_assignment = "false (0)"

[[record]]
molecule = "COc1ccc(CNc2ccc3nc(CCC4CCCCC4)[nH]c3c2)cc1"
tested_on = "EKVX NSCLC"
class_assignment = "false (0)"

[[record]]
molecule = "CC(=O)Cc1nsc(NC(=O)c2cc(-c3cc(Cl)ccc3Cl)oc2C)n1"
tested_on = "EKVX NSCLC"
class_assignment = "false (0)"

[[record]]
molecule = "COc1cc2cc(Oc3ccc(NC(=O)Nc4ccc(F)c(C(F)(F)F)c4)cc3)c(C)nc2cc1OCCN1CCCCC1"
tested_on = "EKVX NSCLC"
class_assignment = "false (0)"

[[record]]
molecule = "COC1CC(O)C2=C(CC3C(/C(C)=C\\CC=C(C)C)CCC3(C)O2)C1=O (stereo unspecified)"
tested_on = "EKVX NSCLC"
class_assignment = "false (0)"

[[record]]
molecule = "CN1CCN(Cc2ccc(NC(=O)c3cc(C#Cc4cnc(N)c5ncccc45)n(C)n3)cc2C(F)(F)F)CC1"
tested_on = "EKVX NSCLC"
class_assignment = "false (0)"

[[record]]
molecule = "COC(=O)[C@H]1Cc2c([nH]c3ccccc23)[C@H](c2ccc3c(c2)OCO3)N1"
tested_on = "EKVX NSCLC"
class_assignment = "false (0)"

[[record]]
molecule = "Cc1ccc(C(F)(F)F)cc1N1CCN(C(=O)[C@H]2C[C@H]2c2ccc(C(F)(F)F)nc2)CC1"
tested_on = "EKVX NSCLC"
class_assignment = "false (0)"

[[record]]
molecule = "Cc1nc2c(c(-c3ccccc3)n1)Cc1c(ccc3ccccc13)O2"
tested_on = "EKVX NSCLC"
class_assignment = "false (0)"

[[record]]
molecule = "O=C(CSc1nnc(-c2ccc(Cl)c(Cl)c2)n1-c1ccccc1)Nc1ccc(C(=O)/C=C/c2ccc(Cl)cc2)cc1"
tested_on = "EKVX NSCLC"
class_assignment = "false (0)"

[[record]]
molecule = "CCN(CC)CCN1C(=O)c2c(c(C)c3c(oc4cc(OC)ccc43)c2C)C1=O"
tested_on = "EKVX NSCLC"
class_assignment = "false (0)"

[[record]]
molecule = "COC(=O)c1nc(-c2ccc(C)cc2)oc1N1CCOCC1"
tested_on = "EKVX NSCLC"
class_assignment = "false (0)"

[[record]]
molecule = "O=C(Nc1ccc2c(c1)-c1ccccc1C2)C1CC(=O)N(c2ccc3c(c2)OCO3)C1 (stereo unspecified)"
tested_on = "EKVX NSCLC"
class_assignment = "false (0)"

[[record]]
molecule = "COc1cccc(-c2cc(-c3ccc(Nc4nc(Nc5ccc(Cl)cc5)nc(Nc5ccc(Cl)cc5)n4)cc3)nc(N)c2C#N)c1"
tested_on = "EKVX NSCLC"
class_assignment = "false (0)"

[[record]]
molecule = "N#CSCc1cc(Cl)c(CSC#N)cc1Cl"
tested_on = "EKVX NSCLC"
class_assignment = "false (0)"

[[record]]
molecule = "CCOC(=O)c1ccc2c(c1)c1c(C)c3cnccc3c(C)c1n2C"
tested_on = "EKVX NSCLC"
class_assignment = "true (1)"

[[record]]
molecule = "COc1ccc(Nc2nc(Nc3cc(C)[nH]n3)c3cc(OC)c(OC)cc3n2)cc1"
tested_on = "EKVX NSCLC"
class_assignment = "true (1)"

[[record]]
molecule = "Cc1nc2ccccc2c(/C=C/c2ccc(Br)cc2)c1C(=O)/C=C/c1ccccc1"
tested_on = "EKVX NSCLC"
class_assignment = "false (0)"

[[record]]
molecule = "COc1ccc(NC(=O)c2sc3nc(C)c(C(=O)c4ccccc4)cc3c2N)cc1"
tested_on = "EKVX NSCLC"
class_assignment = "false (0)"

[[record]]
molecule = "Oc1c(Cl)cc(Cl)c2ccc(CN3CCNCC3)nc12"
tested_on = "EKVX NSCLC"
class_assignment = "false (0)"

[[record]]
molecule = "O=C(Nc1ncc(Cc2cc(C(F)(F)F)ccc2Cl)s1)C(=S)N1CCOCC1"
tested_on = "EKVX NSCLC"
class_assignment = "false (0)"

[[record]]
molecule = "COc1cc2c(cc1OC)CC[N+](CCC[N+](C)(C)C)=C2"
tested_on = "EKVX NSCLC"
class_assignment = "false (0)"

[[record]]
molecule = "CCOC(=O)/C=C1\\S/C(=N\\Nc2cc(=O)[nH]c3ccc(OC)cc23)N(c2ccccc2)C1=O"
tested_on = "EKVX NSCLC"
class_assignment = "false (0)"

[[record]]
molecule = "CN1CCN(c2ccc(Nc3ncc4[nH]c(=O)n(Cc5ccccc5N)c4n3)cc2)CC1"
tested_on = "EKVX NSCLC"
class_assignment = "false (0)"

[[record]]
molecule = "Cc1[nH]c(C(=O)Nc2ccc(C(N)=O)cc2OC(C)C)c(Cl)c1Cl"
tested_on = "EKVX NSCLC"
class_assignment = "false (0)"

[[record]]
molecule = "C=CCn1c(SCC(=O)Nc2ccc(C(=O)/C=C/c3cc(OC)c(OC)c(OC)c3)cc2)nnc1-c1cc(-c2ccc(S(N)(=O)=O)cc2)nc2ccccc12"
tested_on = "EKVX NSCLC"
class_assignment = "false (0)"

[[record]]
molecule = "CN(CCNc1ccc(C(=N)N)cc1)c1ccc(C(=N)N)cc1"
tested_on = "EKVX NSCLC"
class_assignment = "false (0)"

[[record]]
molecule = "CNC1=C([N+](=O)[O-])C(c2ccc(OC)cc2)C(C#N)=C(c2ccc[nH]2)O1 (stereo unspecified)"
tested_on = "EKVX NSCLC"
class_assignment = "false (0)"

[[record]]
molecule = "COc1cc(NC(=O)c2cncnc2Nc2ccc3c(ccn3Cc3cccc(F)c3)c2)cc(OC)c1"
tested_on = "EKVX NSCLC"
class_assignment = "false (0)"

[[record]]
molecule = "Cc1ccc(C2=Nc3c(N)nc(N)nc3NC(c3cccc(Nc4ccnc5cc(C(F)(F)F)ccc45)c3)C2)cc1 (stereo unspecified)"
tested_on = "EKVX NSCLC"
class_assignment = "false (0)"

